Measurement notes: method code SF-AS, from Hansch, C., Leo, A., & Hoekman, D. (1995). Exploring QSAR: hydrophobic, electronic, and steric constants (Vol. 2). Washington, DC: American Chemical Society.
Conditions used: pH 6.4
Metric: logD

* CC1=NN(CCOc2ccc3ccccc3c2)C(=O)C1 | 2.74

---

Conditions used: pH 5.0
The entries below are paired with their reported logD.
Metric: logD

• Sc1nc(-c2ccccc2)ns1 = 2.13
• c1n[nH]c2c1CC[C@H]1c3[nH]ncc3CC[C@H]21 = 0.3
• CCOC(=O)CCl = 0.94

---

// assign t if logP falls strictly below 2, else f (ties count as f)

- Cc1cccc(CC(=O)O)c1Nc1c(Cl)cccc1Cl: f
- FC1(F)C(F)(F)C(F)(F)C(F)(F)C(F)(F)C1(F)F: f
- O=C(OCCCc1cnc[nH]1)c1ccccc1: f
- FC(F)(F)c1ccccc1Cl: f
- CCCC(=O)OC: t
- N#CCc1cccc(Oc2ccccc2)c1: f
- COC(=O)c1cc(Cl)ccc1N: f
- COP(=S)(OC)SCC(=O)N(C)C=O: t
- N#C/C=C/C#N: t
- Nc1c([N+](=O)[O-])cccc1[N+](=O)[O-]: t
- CCOC(=O)C(=O)Nc1ccccc1: t
- CN(C)/C=C/C#N: t
- NC(=O)OCCc1cccc2c1C(=O)C(Br)=C(N1CC1)C2=O: t
- CC(C)C(C#N)Cc1ccc(Cl)cc1 (configuration not stated): f
- CCC(C)Cl (configuration not stated): f
- CCCCCCn1cc(C)c(=O)[nH]c1=O: t
- O=C(NCCN1CCC(O)(c2ccc(Cl)cc2)CC1)c1ccc(F)cc1: f
- C=CCOC(C)=O: t
- O=C1C=C(NCCO)C(=O)c2ccccc21: t
- CC1CN1C1=C(F)C(=O)C(N2CC2C)=C(F)C1=O (configuration not stated): t
- COc1ccc2[nH]c(N)nc2c1: t
- C#CCN(CC#C)CC#C: t
- CC(=O)C1CC1: t
- CC1COC(=O)O1 (configuration not stated): t
- CNC=O: t
- Fc1cc(F)c(F)c(F)c1F: f
- O=C(O)Cc1ccc(N2Cc3ccccc3C2=O)cc1: f
- CCN(CC)S(=O)(=O)c1ccc(OC)c(N)c1: t
- FC(F)(F)c1ccc(C(F)(F)F)cc1: f
- Cn1cccc1C=NNC(=O)Nc1ccccc1: f

---

The entries below are paired with their reported logP.
Metric: logP

* O=C(NCCCO)C(F)(F)Cn1ccnc1[N+](=O)[O-] | -0.64
* O=C(O)c1ccc2c(c1)OCCOCCOCCOCCOCCO2 | -0.28
* Cn1cccn1 | 0.23
* Fc1cccc(F)n1 | 1.17
* NNP(=O)(Oc1ccccc1)Oc1ccccc1 | 1.51
* O=C1C(=O)c2ccccc2-c2ccccc21 | 2.52
* C[C@]12CCC(=O)C=C1CC[C@@H]1[C@@H]2CC[C@@]2(C)[C@H]1CC[C@]2(O)[C@H](O)CO | 2

---

Metric: logP

• C#CC(C)(C)NS(=O)(=O)c1ccc(OC)c(C(=O)NCC2CCCN2CC)c1 (stereo not given) = 2.8
• OCCC1CCN(CC/C=C2\c3ccc(F)cc3Sc3ccc(C(F)(F)F)cc32)CC1 = 4.09
• OC1(c2ccc(Cl)cc2)CCN(CCCC2(c3ccc(F)cc3)OCCO2)CC1 = 3.84
• COc1ccc(S(N)(=O)=O)cc1C(=O)NC1CC2CCCC1N2Cc1ccccc1 (stereo not given) = 2.88
• O=C(O)Cc1nn(Cc2nc3cc(F)ccc3s2)c(=O)c2ccccc12 = 1.86

// data source = the SangsterLogP compilation
